Test system: S. pneumoniae
Experiment: Kill or inhibit growth/proliferation; morphology, biofilm and growth disruption (Tables 5, 6); note: test concentration or dose not given here
Format: cell-based, Streptococcus pneumoniae
Set-up: key: A: Peptide aggregates; B: Less hyphal formation; Clumps; Diffuse clumps and small polyps; F: Diffuse growth; H: Thin; I: Growth inhibition; Microcolony formation; Rippled; Small polyps; Thick; W: Halo formation on top, microlonies on bottom
Ends that are not written are not given here.
READOUT_KIND: Organism, effect

The cases that follow already have their Organism, effect on record.
SUBSTANCE	READOUT_KIND	ENDPOINT_VALUE
PF-515: peptide having multiple activities (chain 1 DKSTQDKDIKQAKLLAQELGL-NH2; chain 2 DKSTQDKDIKQAKLLAQELGL-NH2)	Organism, effect	S. pneumoniae (H)
PF-474: peptide having multiple activities (chain 1 MHRNLVLVKMEPIPHIMIIANQIGIIIEKA; chain 2 MHRNLVLVKMEPIPHIMIIANQIGIIIEKA; Peptide with targeting and/or antimicrobial activity)	Organism, effect	S. pneumoniae (D)
PF-067: peptide having multiple activities (DLIVKVHICFVVKTASGYCYLNKREAQAAI; Peptide with targeting and/or antimicrobial activity)	Organism, effect	S. pneumoniae (D)
PF-020: peptide having multiple activities (chain 1 MKIILLLFLIFGFIVVVTLKSEHQLTLFSI; chain 2 MKIILLLFLIFGFIVVVTLKSEHQLTLFSI; Peptide with targeting and/or antimicrobial activity)	Organism, effect	S. pneumoniae (D)
GSVIKKRRKRMAKKKHRKLLKKTRIQRRRAGK [PF-527]	Organism, effect	S. pneumoniae (H)

Shifting focus to the substance that follows.
What the record says about PF-220 (VDPADDGTRHIRPEDGDPIEIDE; Peptide with targeting and/or antimicrobial activity) : Organism, effect is S. pneumoniae (H)
